Hello, the source for this data is ChEMBL document CHEMBL1201862, in case you need it.

System: SW-620
assay comment: NCI tumour cell line growth inhibition, 48 h
Activity calls are given as the source filed them. Rule as the data show it: active = GI50 up to about 1.1 µM and inactive = higher.
measured quantity: GI50

Field: example entries. Status: answers known.
In [3]: df
Out[3]:
                                   compound  test_target  measured_quantity               result
0  CCO/C=C\C12CCCC1NC(c1ccccc1)(c1ccccc1)O2 (stereo not drawn)       SW-620               GI50   38.4 µM (inactive)
1  COc1cc(NC(C)c2ccc3c(c2)OCCO3)cc(OC)c1OC (stereo not drawn)       SW-620               GI50   33.9 µM (inactive)
2  Clc1ccc(-c2nc3cc(C45CC6CC(CC(C6)C4)C5)ccc3[nH]2)cc1       SW-620               GI50   19.3 µM (inactive)
3             CC(C)CC(=O)NS(=O)(=O)c1ccccc1       SW-620               GI50  > 100 µM (inactive)
4  C[C@H](CCC(=O)NCCS(=O)(=O)O)[C@H]1CC[C@H]2[C@@H]3CC[C@@H]4C[C@H](O)CC[C@]4(C)[C@H]3CC[C@]12C       SW-620               GI50  > 100 µM (inactive)

Problem: For the compound CC(=O)NCCCCCCNC(C)=O [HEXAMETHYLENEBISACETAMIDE] , report GI50.
Solution: > 3570 µM (inactive)

Problem: For the compound O=C(CSc1nc(-c2ccccc2)c(-c2ccccc2)[nH]1)N/N=C/c1ccc(O)cc1 , report GI50.
Solution: 30.8 µM (inactive)

Problem: For the compound O=C1N(c2ccccc2)C2(c3ccccc3)CC3CCCC13S2 (stereo not drawn) , report GI50.
Solution: 50.7 µM (inactive)

Problem: For the compound O=[N+]([O-])c1cccc(/C=N/NC2=CS(=O)(=O)C=C2)c1 , report GI50.
Solution: > 100 µM (inactive)

Problem: For the compound C(=C\c1cc(-c2ccc3ccccc3n2)nc2ccc3ccccc3c12)/c1ccc2ccccc2n1 , report GI50.
Solution: > 100 µM (inactive)

Problem: For the compound OC1(c2ccccc2)c2ccccc2N=C2NCCN21 (stereo not drawn) , report GI50.
Solution: 84.7 µM (inactive)

* * *

Test system: T47D
assay comment: NCI tumour cell line growth inhibition, 48 h
Calls of active or inactive are those of the source. No stated cut-off is given here; in the data, active = GI50 up to about 1.1 µM and inactive = higher.
# GI50 listing for each entry below

Field: example entries. Status: answers known.
smi	test target	GI50
C=CCOC(=O)CCCCCCCCCCCCCCCOC(=O)c1c(CCC[C@@H](C)O[Si](C)(C)C(C)(C)C)nc([O-])[n+]2c1CC[C@H]2CC1(CC/C=C\[C@H](CC)O[Si](C(C)C)(C(C)C)C(C)C)OCCO1	T47D	> 100 µM (inactive)
Cc1ccc(/N=N/C(=N/NC(=O)c2cc(Cl)ccc2O)c2ccc(N(CCC#N)CCC#N)cc2C)cc1	T47D	7.29 µM (inactive)
COc1ccc(/C=C2\N=C3Sc4c([nH]cnc4=O)N3C2=O)cc1	T47D	> 100 µM (inactive)

Problem: For the compound COc1cc(OCc2nc3cc(C(F)(F)F)ccc3nc2-c2ccccc2)cc(OC)c1OC , report GI50.
Solution: 11.9 µM (inactive)

* * *

Test system: CCRF-CEM
assay comment: NCI tumour cell line growth inhibition, 48 h
The source made the active and inactive calls. Rule as the data show it: active = GI50 up to about 1.1 µM and inactive = higher.
Could you please pick one outcome from this set? active, inactive

Problem: Please indicate how the test categorized COc1cc2c(cc1OC)-c1c(cnn1C1OC(COC(C)=O)C(OC(C)=O)C(OC(C)=O)C1OC(C)=O)CC2 (stereo unspecified) .
Solution: inactive

Problem: Please indicate how the test categorized CC1=C(C(=O)NNC(=O)c2ccccc2)CC(C(=O)NNC(=O)c2ccccc2)=C(C)N1 .
Solution: inactive

* * *

# GI50 listing for each entry below
Test system: SK-MEL-2
assay comment: NCI tumour cell line growth inhibition, 48 h
The source made the active and inactive calls. No stated cut-off is given here; in the data, active = GI50 up to about 1.1 µM and inactive = higher.

>>> print(df.to_string())
                                   compound  measured_quantity               result
0  CC1=NN(C(=O)CC(=O)Nc2ccccc2)C(=O)C1/N=N/c1ccc(S(N)(=O)=O)cc1 (stereo unspecified)               GI50  > 100 µM (inactive)

Problem: Recall the reported GI50 of Cc1c(Cl)c(=O)oc2cc(OCC(O)COC(C)C)ccc12 (stereo unspecified) when tested on SK-MEL-2.
Solution: 30.3 µM (inactive)

Problem: Recall the reported GI50 of COc1ccc(C2CCc3nc4nc(N)nc(N)c4cc3C2)cc1 (stereo unspecified) when tested on SK-MEL-2.
Solution: 18.9 µM (inactive)

Problem: Recall the reported GI50 of COC(=O)C(NC(=O)CSc1nnc(COc2ccc(Cl)cc2)n1-c1ccccc1)C(C)C (stereo unspecified) when tested on SK-MEL-2.
Solution: 18.7 µM (inactive)

Problem: Recall the reported GI50 of COc1ccc(/C=C2\N=C3Sc4c([nH]cnc4=O)N3C2=O)cc1 when tested on SK-MEL-2.
Solution: > 100 µM (inactive)

Problem: Recall the reported GI50 of CCCc1cc(O)c2c(C)c3[nH]c4ccc(Cl)cc4c3c(C)c2n1 when tested on SK-MEL-2.
Solution: 3.57 µM (inactive)

Problem: Recall the reported GI50 of CN(C)CCCSc1nc2ccccc2[nH]1 when tested on SK-MEL-2.
Solution: > 100 µM (inactive)

Problem: Recall the reported GI50 of Cc1cccc(C(C)C)c1NC(=O)C(=O)CC(=O)c1c(C)[n+]([O-])c2ccccc2[n+]1[O-] when tested on SK-MEL-2.
Solution: 29.3 µM (inactive)

Problem: Recall the reported GI50 of O=C(c1ccccc1)c1nc2ccc(Cl)cc2c2c1Cc1ccccc1-2 when tested on SK-MEL-2.
Solution: > 100 µM (inactive)

Problem: Recall the reported GI50 of Cc1nnc2ccccc2c1O when tested on SK-MEL-2.
Solution: > 100 µM (inactive)

Problem: Recall the reported GI50 of Cc1ccccc1-n1c(CCl)nc2ccc(Br)cc2c1=O when tested on SK-MEL-2.
Solution: 14.6 µM (inactive)

* * *

Tested on: NCI-H460
assay comment: NCI tumour cell line growth inhibition, 48 h
Active and inactive are the calls of the source. Cut-off read from the data, not from the text of the source: active = GI50 up to about 1.1 µM and inactive = higher.
# GI50 listing for each entry below

Problem: For the compound NC1=NN(c2ccccc2)C2(O)c3ccncc3C3=NN(c4ccccc4)C(=O)C132 (stereo unspecified) , report GI50.
Solution: > 100 µM (inactive)

Problem: For the compound CSc1nc2c(ncn2C2OCC(O)C(O)C2O)c(=O)n1C (stereo unspecified) , report GI50.
Solution: > 100 µM (inactive)

Problem: For the compound C/C(=C/c1ccccc1)CN(C(=O)/C=C\Sc1ccccc1)C(C)(C)C , report GI50.
Solution: > 100 µM (inactive)

Problem: For the compound CN(C)c1c(C2CC(O)C(CO)O2)c(=O)c1=O (stereo unspecified) , report GI50.
Solution: > 100 µM (inactive)

Problem: For the compound O=C(CSc1nc(-c2ccccc2)c(-c2ccccc2)[nH]1)N/N=C/c1ccc(O)cc1 , report GI50.
Solution: 20 µM (inactive)

Problem: For the compound N=c1oc2cc(O)ccc2cc1C(=O)NCc1ccccc1 , report GI50.
Solution: 25.8 µM (inactive)

* * *

# GI50 listing for each entry below
Test system: UO-31
assay comment: NCI tumour cell line growth inhibition, 48 h
Counter-ions that a name gives are not always drawn. The source made the active and inactive calls. Cut-off read from the data, not from the text of the source: active = GI50 up to about 1.1 µM and inactive = higher.

Field: example entries. Status: answers known.
In [3]: df
Out[3]:
                                   compound  test_target               result
0  COc1ccc(/C=C2\CCC(C)C3=C2NC(=S)NC3c2ccc(OC)c(OC)c2)cc1OC (stereo not given)        UO-31   12.6 µM (inactive)
1  O=C1/C(=C\c2cccc(Oc3ccccc3)c2)S(=O)(=O)C(c2ccccc2)N1Cc1ccccc1 (stereo not given)        UO-31   18.7 µM (inactive)
2  Clc1ccc(-c2nc3cc(C45CC6CC(CC(C6)C4)C5)ccc3[nH]2)cc1        UO-31   15.3 µM (inactive)
3  C[N+](C)(C)c1nc(N)nc2c1ncn2C1OC(CO)C(O)C1O (stereo not given)        UO-31  > 100 µM (inactive)

With those in mind, consider the next compound.
Problem: For the compound CN(C)CCOC(c1ccccc1)c1ccccc1 [DIPHENHYDRAMINE HYDROCHLORIDE] , report GI50.
Solution: > 100 µM (inactive)

* * *

Test system: LOX IMVI
assay comment: NCI tumour cell line growth inhibition, 48 h
Active and inactive are the calls of the source. Rule as the data show it: active = GI50 up to about 1.1 µM and inactive = higher.
Could you please pick one outcome from this set? active, inactive

Below, 3 compounds whose answers are already recorded.
>>> print(df.to_string())
                                   compound  test_target  answer_label
0               Cc1cnc2cc(Cl)ccc2c1SCC(=O)O     LOX IMVI      inactive
1  O=C1Cc2c(-c3ccccc3)cc(-c3cccc(Cl)c3)nc2-c2ccccc2N1     LOX IMVI      inactive
2        C(/Cc1ccc2c(c1)OCO2)=N\N=C1NCCCCN1     LOX IMVI      inactive

Problem: Please indicate how the test categorized COc1cc(C2c3cc4c(cc3[C@@H](Nc3ccc(N5CCOCC5)cc3)C3COC(=O)[C@H]23)OCO4)cc(OC)c1O (stereo partly specified) .
Solution: active

Problem: Please indicate how the test categorized BrC1=CC=C2NC=CC3=CC=NC1C32 (stereo unspecified) .
Solution: inactive

Problem: Please indicate how the test categorized CCCCCCSc1nc(COC(=O)NC)c(COC(=O)NC)n1C .
Solution: inactive
